Test system: SARS-CoV-2
ASSAY_SUMMARY: Antiviral activity against SARS-CoV2 USA-WA1/2020 infected in African green monkey Vero E6 cells assessed as reduction in viral plaques incubated for 3 days by plaque reduction neutralization test
Assay type: functional, organism-based
MEASUREMENT_CONDITIONS: Severe acute respiratory syndrome coronavirus 2, USA-WA1/2020, Vero C1008, 72 h
pEC50: −log10 of the molar value.
ASSAY_METRIC: pEC50

1) CC(C)(C)[C@H](NC(=O)OCc1ccccc1)C(=O)N1C[C@H]2[C@@H]([C@H]1C(=O)N[C@H](C=O)C[C@@H]1CCNC1=O)C2(C)C : 5.53
2) C[C@@H](OC(C)(C)C)[C@H](NC(=O)OCc1ccccc1)C(=O)N1C[C@H]2[C@@H]([C@H]1C(=O)N[C@H](C=O)C[C@@H]1CCNC1=O)C2(C)C : 5.97
3) CC(C)(C)OC(=O)N[C@H](C(=O)N1C[C@H]2[C@@H]([C@H]1C(=O)N[C@H](C=O)C[C@@H]1CCNC1=O)C2(C)C)C(C)(C)C : 6.21

====

# CC50 values compiled below
ASSAY_SUMMARY: Cytotoxicity against HEK293T/17 cells assessed as inhibition of cell growth incubated for 48 hrs by MTT assay
Type: toxicity, cell-based
MEASUREMENT_CONDITIONS: human, hek293t/17, 48 h
ASSAY_METRIC: CC50 (µM)

1) C[C@@H](OC(C)(C)C)[C@H](NC(=O)OCc1ccccc1)C(=O)N1C[C@H]2[C@@H]([C@H]1C(=O)N[C@H](C=O)C[C@@H]1CCNC1=O)C2(C)C : 163
2) CC(C)(C)OC(=O)N[C@H](C(=O)N1C[C@H]2[C@@H]([C@H]1C(=O)N[C@H](C=O)C[C@@H]1CCNC1=O)C2(C)C)C(C)(C)C : 34.2
3) CC(C)(C)[C@H](NC(=O)OCc1ccccc1)C(=O)N1C[C@H]2[C@@H]([C@H]1C(=O)N[C@H](C=O)C[C@@H]1CCNC1=O)C2(C)C : 144

====

The following compounds are listed with their measured pEC50 values.
Tested on: SARS-CoV-2
ASSAY_SUMMARY: Antiviral activity against SARS-CoV2 Delta infected in African green monkey Vero E6 cells assessed as reduction in viral plaques incubated for 3 days by plaque reduction neutralization test
Format: functional, organism-based
MEASUREMENT_CONDITIONS: Severe acute respiratory syndrome coronavirus 2, Delta, Vero C1008, 72 h
pEC50: −log10 of the molar value.
ASSAY_METRIC: pEC50

1) CC(C)(C)[C@H](NC(=O)OCc1ccccc1)C(=O)N1C[C@H]2[C@@H]([C@H]1C(=O)N[C@H](C=O)C[C@@H]1CCNC1=O)C2(C)C : 5.98
2) C[C@@H](OC(C)(C)C)[C@H](NC(=O)OCc1ccccc1)C(=O)N1C[C@H]2[C@@H]([C@H]1C(=O)N[C@H](C=O)C[C@@H]1CCNC1=O)C2(C)C : 6.12
3) CC(C)(C)OC(=O)N[C@H](C(=O)N1C[C@H]2[C@@H]([C@H]1C(=O)N[C@H](C=O)C[C@@H]1CCNC1=O)C2(C)C)C(C)(C)C : 6.00

The measured values listed here are drawn from ChEMBL document CHEMBL5113496.
